Data origin: ChEMBL document CHEMBL1961873

target: Tyrosine-protein kinase JAK1 (Homo sapiens); conditions: at 0.1 µM
Description: GSK_PKIS: JAK1 mean inhibition at 0.1 uM [Nanosyn]
ATTRIBUTE_MEASURED: inhibition (%)
Please reply with the bare figure in % and do not write the unit itself.

**Query** Param readout = inhibition; param system = Tyrosine-protein kinase JAK1 (Homo sapiens); param query = Fc1ccc(-c2cc(-c3c[nH]nc3-c3ccccn3)ccn2)cc1 ; response: value
**Result** 4.79

**Query** Now try COc1cc2ncn(-c3cc(OCc4ccccc4C(F)(F)F)c(C(=O)N(C)C)s3)c2cc1OC .
**Result** -1.58

**Query** Now try CS(=O)(=O)CCNCc1coc(-c2ccc3ncnc(Nc4ccc(OCc5ccccc5)cc4)c3c2)c1 .
**Result** -1.63

**Query** Now try Nc1nc(-c2ccc(F)cc2)c(-c2ccc3ncccc3n2)s1 .
**Result** 2.95

**Query** Now try NS(=O)(=O)c1ccc(N/N=C2\C(=O)Nc3ccc4ncccc4c32)cc1 .
**Result** 2.63

**Query** Now try CCN(CC)S(=O)(=O)c1ccc(OC)c(Nc2ncc(-c3ccccc3)o2)c1 .
**Result** 1.87

**Query** Now try COc1ccc(-c2cc3c(N)ncnc3o2)cc1 .
**Result** -0.12

**Query** Now try COc1cccc(-c2c[nH]c3c(N/N=C/c4ccncc4)ncnc23)c1 .
**Result** 4.4

**Query** Now try NC(=O)c1sc(-n2cnc3ccc(C(F)(F)F)cc32)cc1OCc1ccccc1Br .
**Result** 3.49

**Query** Now try CC(=O)Nc1cccc(C#Cc2cncnc2Nc2ccc(OCc3cccc(F)c3)c(Cl)c2)c1 .
**Result** 6.03

**Query** Now try Cc1cccc2c1NC(=O)/C2=N\Nc1ccc(S(N)(=O)=O)cc1 .
**Result** 3.68

**Query** Now try O=C(Nc1n[nH]c2cc(-c3ccc(F)cc3)ccc12)C1CC1 .
**Result** 1.55

**Query** Now try CC(=O)NCc1cccc(C#Cc2cncnc2Nc2ccc(OCc3cccc(F)c3)c(Cl)c2)c1 .
**Result** 0.65

**Query** Now try Fc1ccc(-c2nn3ccccc3c2-c2ccncc2)cc1 .
**Result** 0.87

**Query** Now try Cc1cccc(Nc2ncc(-c3ccccc3)o2)c1 .
**Result** 2.19

**Query** Now try COc1cc(Nc2nccc(Nc3ccc4c(C)n[nH]c4c3)n2)cc(OC)c1OC .
**Result** 17.8

**Query** Now try COc1ccc(-c2nn3ncccc3c2-c2ccnc(Nc3ccc4c(c3)OCCO4)n2)cc1 .
**Result** 1.48

**Query** Now try COc1ccc2c(-c3ccnc(Nc4cccc(OC(F)(F)F)c4)n3)cnn2n1 .
**Result** 4.66

**Query** Now try CCn1c(-c2nonc2N)nc2c(C#CC(C)(C)O)nc(OC[C@H](N)c3ccccc3)cc21 .
**Result** 1.86

**Query** Now try CS(=O)(=O)CCNCc1ccc(-c2ccc3ncnc(Nc4ccc(OCc5ccccc5)c(C(F)(F)F)c4)c3c2)o1 .
**Result** 2.98

**Query** Now try CN(C)CCOc1ccc(-c2nc(-c3ccncc3)c(-c3ccc4c(c3)CC/C4=N\O)[nH]2)cc1 .
**Result** 3.43
